Provenance of the data: the Human Domainome abundance scans (Beltran et al. 2025)

B1: Homeobox protein cut-like 2, residues 895 to 963; numbered along this chain, O14529 (parent)
chain: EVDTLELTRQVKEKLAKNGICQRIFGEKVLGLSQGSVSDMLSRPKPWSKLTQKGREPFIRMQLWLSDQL

Variants of: B1
Procedure Summary: abundance fitness (aPCA) (normalised: wild type 0, dead -1); higher = more abundant; growth selection in yeast, the domain comes from the species named
Measurement Context: Homo sapiens
Measurement Label: abundance fitness
Reply with the value as a number alone.

# example entries with known answers
Mutation List	abundance fitness
I59C	-0.278
L50F	-0.315

## Task Field request: abundance fitness | item: W47P
## Result -0.964

## Task Also I59K ?
## Result 0.079

## Task Here is the next variant: G31A
## Result -0.226

## Task Param item: L41H
## Result -0.37

## Task One more variant: V11N
## Result -0.153
